Target: T1, DR5-IgG (human, UniProt O14763 56-184)
T1 construct: also called Apo-2-IgG; not shown: IgG part; prepared as in WO98/51793, not described here
T1 sequence (O14763 56-184): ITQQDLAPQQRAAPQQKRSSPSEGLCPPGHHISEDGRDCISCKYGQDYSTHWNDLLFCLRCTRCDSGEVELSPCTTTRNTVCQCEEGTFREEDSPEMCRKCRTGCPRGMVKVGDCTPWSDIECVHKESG
Experiment: BIAcore; against Flag.Apo2L.WT
parameterMeasured: DR5 KD (mut/wt) (ratio)

binder	parameterMeasured	recordedResult
Flag.Apo2L.DR4-8 (ligand, not shown: N-terminal flag tag from pFLAG-MAC) VRERGPQRVAAHITGTRGRSNTLSSPNSKNEKALGRKINSWESSRSGHSFLSNLHLRNGELVIHEKGFYYIYSQTAFRFSEEIKEVTRNDKQMVQYIYKWTDYPDPILLMKSARNSCWSKDAEYGLYSIYQGGIFELKENDRIFVSVTNEHLIDMDHEASFFGAFLVG	DR5 KD (mut/wt)	1100
Flag.Apo2L.DR5-8 (ligand, also called Flag-Apo21.DR5-8; not shown: N-terminal flag tag from pFLAG-MAC) VRERGPQRVAAHITGTRGRSNTLSSPNSKNEKALGRKINSWESSRSGHSFLSNLHLRNGELVIHEKGFYYIYSQTQFKFREEIKENTKNDKQMVQYIYKYTSYPDPILLMKSARNSCWSKDAEYGLYSIYQGGIFELKENDRIFVSVTNERLLQMDHEASFFGAFLVG	DR5 KD (mut/wt)	0.8
Flag.Apo2L.DR5-1 (ligand, not shown: N-terminal flag tag from pFLAG-MAC) VRERGPQRVAAHITGTRGRSNTLSSPNSKNEKALGRKINSWESSRSGHSFLSNLHLRNGELVIHEKGFYYIYSQTAFKFKEEIKENTKNDKQMVQYIYKYTSYPDPILLMKSARNSCWSKDAEYGLYSIYQGGIFELKENDRIFVSVTNEALIDMDHEASFFGAFLVG	DR5 KD (mut/wt)	2.2
